assayDetails: self-splicing fitness, log relative to wild type (ln ratio); higher = more splicing; Tetrahymena group I intron in knt gene, E. coli kanamycin selection, DiMSum; sequences stand for … in CUCUCU…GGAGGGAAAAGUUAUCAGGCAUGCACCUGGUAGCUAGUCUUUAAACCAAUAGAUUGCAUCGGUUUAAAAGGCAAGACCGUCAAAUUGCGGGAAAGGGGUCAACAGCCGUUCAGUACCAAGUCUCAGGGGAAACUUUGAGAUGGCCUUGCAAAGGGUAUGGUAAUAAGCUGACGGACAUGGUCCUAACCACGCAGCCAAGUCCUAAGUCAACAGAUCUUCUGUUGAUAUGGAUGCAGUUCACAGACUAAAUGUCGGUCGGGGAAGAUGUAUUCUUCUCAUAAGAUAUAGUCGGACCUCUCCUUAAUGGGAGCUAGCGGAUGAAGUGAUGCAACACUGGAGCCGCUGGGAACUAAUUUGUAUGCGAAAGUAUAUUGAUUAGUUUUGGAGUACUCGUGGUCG;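 also: selection with 25 µg/mL kanamycin versus none on LB agar overnight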
setupConditions: 30 °C
observedProperty: self-splicing fitness (ln)
// print number alone

Sample records with self-splicing fitness (ln):
{"chain": "AACAAGCAAUAUUACGAGAU", "self-splicing fitness (ln)": -3.08}
{"chain": "GACAAGCAAUAUUACGAUUG", "self-splicing fitness (ln)": -1.77}
{"chain": "AUGCAGCAAUAUUACGAACC", "self-splicing fitness (ln)": -1.17}
{"chain": "CAAUAGCAAUAUUACGAACG", "self-splicing fitness (ln)": -0.128}
{"chain": "ACCGAGCAAUAUUACGAGUU", "self-splicing fitness (ln)": -3.25}
{"chain": "GCCCAGCAAUAUUACGGGCU", "self-splicing fitness (ln)": -3.75}
{"chain": "AGUGAGCAAUAUUACGGUGA", "self-splicing fitness (ln)": -3.03}
{"chain": "GCUGAGCAAUAUUACGGCAC", "self-splicing fitness (ln)": -0.439}

Supply recorded self-splicing fitness (ln) for GUCGAGCAAUAUUACGCAAC here.
-1.92

Fill in reported self-splicing fitness (ln) for this entry: GCAGAGCAAUAUUACGCUGU
-2.66

Specify measured self-splicing fitness (ln) for CAACAGCAAUAUUACGGCUU .
-1.88

Supply recorded self-splicing fitness (ln) for AUGCAGCAAUAUUACGCCCC here.
-0.386

Output self-splicing fitness (ln) of AAGCAGCAAUAUUACGUCCG
-2.15

Using the record for UCGUAGCAAUAUUACGUGUA , state its measured self-splicing fitness (ln).
-2.75

Quick one: give measured self-splicing fitness (ln) for ACAAAGCAAUAUUACGGCAA
-0.0281

Tell us which self-splicing fitness (ln) value is on record for UAACAGCAAUAUUACGCCUG
-0.264

* * *

assayDetails: self-splicing fitness, log relative to wild type (ln ratio); higher = more splicing; Tetrahymena group I intron in knt gene, E. coli kanamycin selection, DiMSum; sequences stand for … in CUCUCU…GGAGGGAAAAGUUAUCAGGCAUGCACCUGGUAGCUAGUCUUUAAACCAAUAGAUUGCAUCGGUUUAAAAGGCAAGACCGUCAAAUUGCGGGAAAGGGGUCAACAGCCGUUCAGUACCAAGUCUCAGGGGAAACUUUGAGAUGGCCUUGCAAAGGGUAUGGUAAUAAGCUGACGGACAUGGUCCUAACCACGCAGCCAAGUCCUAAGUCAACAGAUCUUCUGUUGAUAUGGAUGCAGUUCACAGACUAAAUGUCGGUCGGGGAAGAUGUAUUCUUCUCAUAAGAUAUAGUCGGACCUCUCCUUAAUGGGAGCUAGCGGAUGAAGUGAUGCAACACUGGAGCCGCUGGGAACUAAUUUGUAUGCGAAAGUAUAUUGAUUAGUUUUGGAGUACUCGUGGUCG
setupConditions: 30 °C
observedProperty: self-splicing fitness (ln)
Lab note: record just the number, no unit beside it.

Look over these answered cases.
{"chain": "UUUGAGCAAUAUUACGGGAU", "numericReadout": -2.91}
{"chain": "AAUAAGCAAUAUUACGCUGA", "numericReadout": -1.81}
{"chain": "GGCAAGCAAUAUUACGUGCU", "numericReadout": -3.91}
{"chain": "UCGUAGCAAUAUUACGACAA", "numericReadout": -2.42}
{"chain": "UAUGAGCAAUAUUACGGGUA", "numericReadout": -1.86}
{"chain": "UUGCAGCAAUAUUACGACAA", "numericReadout": -0.619}
{"chain": "AGUUAGCAAUAUUACGGCUA", "numericReadout": -0.379}
{"chain": "AAACAGCAAUAUUACGUAUC", "numericReadout": -3.98}

Return the recorded self-splicing fitness (ln) value; entry: UCCAAGCAAUAUUACGACAU
-3.54

// Input: UAGUAGCAAUAUUACGAACU . Output its self-splicing fitness (ln) only.
-0.595

Report self-splicing fitness (ln), nothing else, for this sequence: GAUAAGCAAUAUUACGACCA
-1.18

Return reported self-splicing fitness (ln). Input sequence: ACAAAGCAAUAUUACGAGGC
-2.57

Entry UCGUAGCAAUAUUACGUUGA needs its self-splicing fitness (ln) filled in; supply it.
-1.59

Please report self-splicing fitness (ln) for the following sequence: UCCCAGCAAUAUUACGGUUC
-2.43
